# Tested on: rodent lifetime carcinogenesis bioassay, tumor incidence TD50
# experiment-description: carcinogenic potency in animals, long-term in vivo studies, CPDB compilation (AID 1745844)
# cond: rat; strain Long-Evans; females; in feed; site: any site (literature study); lesion: one or several types; types not named; dosed 52 weeks; study length 52 weeks
Activity calls are given as the source filed them. No rule for the calls is given here.
recorded-endpoint: TD50

The measured TD50 associated with CC(Oc1c(Cl)cccc1Cl)C1=NCCN1 (stereo unspecified) reads 2.3 mg/kg/day (inactive)

====

# Tested on: rodent lifetime carcinogenesis bioassay, tumor incidence TD50
# experiment-description: carcinogenic potency in animals, long-term in vivo studies, CPDB compilation (AID 1745844)
# cond: mouse; strain C3H/HeN; males; in feed; site: liver; lesion: several types; types named in the paper; dosed 52 weeks; study length 52 weeks
TD50 values, listed per item
Use mg/kg/day as the unit, but write only the number.

C[N+](C)(C)CCO ... 2770

Turning now to a further record.
The measured TD50 associated with CSCCC(N)C(=O)O (configuration not stated) reads 2000

====

# Tested on: rodent lifetime carcinogenesis bioassay, tumor incidence TD50
# experiment-description: carcinogenic potency in animals, long-term in vivo studies, CPDB compilation (AID 1745844)
# cond: mouse; strain CBA; females; by gavage; site: liver; lesion: hepatoma; dosed 26 weeks; study length 114 weeks
recorded-endpoint: TD50

Given the compound Nc1ccc(-c2ccc(F)cc2)cc1 and test system rodent lifetime carcinogenesis bioassay, tumor incidence TD50, the measured TD50 is 1.09 mg/kg/day

====

# System: rodent lifetime carcinogenesis bioassay, tumor incidence TD50
# experiment-description: carcinogenic potency in animals, long-term in vivo studies, CPDB compilation (AID 1745844)
# cond: rat; strain Fischer 344; males; in feed; site: liver; lesion: hepatocellular adenoma; dosed 66 weeks; study length 66 weeks
recorded-endpoint: TD50 (mg/kg/day)
Use mg/kg/day as the unit, but write only the number.

The measured TD50 associated with Nc1c(Br)cc(Br)c2c1C(=O)c1ccccc1C2=O reads 386

====

# Test system: rodent lifetime carcinogenesis bioassay, tumor incidence TD50
# experiment-description: carcinogenic potency in animals, long-term in vivo studies, CPDB compilation (AID 1745844)
# cond: rat; strain Fischer 344; males; by gavage; site: palate + tongue; lesion: squamous-cell papilloma; dosed 94 weeks; study length 104 weeks
recorded-endpoint: TD50

The measured TD50 associated with ClCC(Cl)CCl reads 8.16 mg/kg/day

====

# Test system: rodent lifetime carcinogenesis bioassay, tumor incidence TD50
# experiment-description: carcinogenic potency in animals, long-term in vivo studies, CPDB compilation (AID 1745844)
# cond: mouse; strain B6C3F1; males; by gavage; site: kidney; lesion: tubule adenoma + tubular-cell adenocarcinoma; dosed 103 weeks; study length 104 weeks
recorded-endpoint: TD50

The measured TD50 associated with [Cl][Hg][Cl] reads 81.6 mg/kg/day

====

# Tested on: rodent lifetime carcinogenesis bioassay, tumor incidence TD50
# experiment-description: carcinogenic potency in animals, long-term in vivo studies, CPDB compilation (AID 1745844)
# cond: rat; strain Wistar; males; in feed; site: kidney; lesion: renal-cell adenoma; dosed 90 weeks; study length 102 weeks
recorded-endpoint: TD50 (mg/kg/day)
Use mg/kg/day as the unit, but write only the number.

The measured TD50 associated with O=P(O)(OCC(Br)CBr)OCC(Br)CBr (stereo unspecified) reads 45.1
